# protocol-summary: M. tuberculosis growth inhibition, HTS (AID 449762);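 further: bacterial growth assessed after seven days of incubation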
# applied-conditions: M. tuberculosis H37Rv growth inhibition, 7H9 media; at 25 µM; hits give high values
In all, about 330,000 compounds went through this assay and about 1,900 (0.58%) were called active. Roughly 4% stayed inconclusive and do not appear here. These entries were drawn from the full list. Results with a measured potency or affinity are listed apart.
measured-endpoint: inhibition

Quick batch: inhibition for everything below.
1. O=C(/C(=C\c1ccccc1)c1nc2ccccc2[nH]1)c1ccc(Cl)cc1
2. O=C(COC(=O)CCC(=O)c1ccc(F)cc1)NC1CCCCC1
3. NC(=S)N/N=C\c1ccccc1OCc1ccccc1
4. CCCn1nnc(NC(=O)COc2ccc(C3CCCCC3)cc2)n1
5. NC(=S)N/N=C/c1ccccc1OCc1cccc(Cl)c1
6. COc1ccc(-c2cc3c(=O)n(CC(=O)NCc4ccccc4OC)ncn3n2)cc1

1. 12.1% (inactive)
2. -5.44% (inactive)
3. 49.5% (inactive)
4. -1.63% (inactive)
5. 2.95% (inactive)
6. -8.29% (inactive)

Quick batch: inhibition for everything below.
1. CCOc1ccc(NC(=O)CN(C)C(=O)Cc2ccsc2)cc1OCC
2. CCCn1nnc(NC(=O)COc2ccccc2Cl)n1
3. C[C@@H]1O[C@@H](O[C@H]2[C@H](Oc3cc(O)c4c(c3)OC(c3ccc(O)cc3)CC4=O)O[C@H](CO)[C@@H](O)[C@@H]2O)[C@H](O)[C@H](O)[C@H]1O (stereo partly drawn)

1: -3.21% (inactive); 2: -5.02% (inactive); 3: -2.06% (inactive)

Quick batch: inhibition for everything below.
1. CCOC(=O)CNC(=S)N(Cc1ccccc1)Cc1cccs1
2. O=C1c2ccccc2-c2cccnc21
3. CCOc1ccccc1C(C(=O)NC1CCCCC1)N(C(=O)c1csnn1)C1CC1 (stereo not drawn)
4. Cc1nc2scc(-c3cccs3)c2c(=O)n1N
5. CCCCCCn1c2c(c(=N)c3c1CCC3)CCC2
6. CN(C)CCCn1c(NCc2ccc3c(c2)OCO3)nc2ccccc21

2.83% (inactive)
-8.77% (inactive)
-6.88% (inactive)
-9.74% (inactive)
-4.99% (inactive)
-3.55% (inactive)

Quick batch: inhibition for everything below.
1. C=CCOn1c(=O)c(-c2ccc(OCC)cc2)[n+]([O-])c2ccccc21
2. CC1CCCC(NC(=O)CSC2=Nc3ccccc3C3CC=NN23)C1C (stereo not drawn)
3. O=C(CNC(=O)c1ccc(Br)o1)NC12CC3CC(CC(C3)C1)C2
4. N/C(=N\OC(=O)CC1CCCCC1)c1ccc([N+](=O)[O-])cc1
5. COc1ccc(-n2c(-c3ccc(Cl)cc3)c[n+]3c2CCCCC3)cc1
6. COc1ccc(N2C(=O)NC(NS(=O)(=O)c3ccccc3)(C(F)(F)F)C2=O)cc1 (stereo not drawn)

1: 6.39% (inactive); 2: 11.7% (inactive); 3: 5.74% (inactive); 4: -1.51% (inactive); 5: -4.69% (inactive); 6: -5.61% (inactive)

Quick batch: inhibition for everything below.
1. O=C1C(O)=C(O)C(=O)c2ccccc21
2. N=C1C(c2ccccc2)=C(O)CN1c1cccc2ccccc12

["-1.99% (inactive)", "-2.85% (inactive)"]

Numbers sourced from PubChem BioAssay AID449762.
